- System: HFLS-OA cells
- Assay method text: Suppressive action to TNF-α-induced proliferation of synovial cells (HFLS-OA), BrdU ELISA
- Assay type: cell-based
- Condition notes: Synovial cell, 120 h; 200 μmol/L test substance; human recombinant TNF-α 10 ng/mL; 5 days; BrdU incorporation increase by TNF-α = 100%; read-out: Synovial Cell Proliferation Rate (%)
Recorded metric: activity at 200 µM

These solved cases illustrate the format of a correct answer.
O=c1oc2c(OS(=O)(=O)c3ccc(C(F)(F)F)cc3)cccc2cc1NS(=O)(=O)c1ccc(-c2ccccc2)cc1 -39%
O=c1oc2c(OS(=O)(=O)c3cccc(Br)c3)cccc2cc1NS(=O)(=O)c1ccc(C(F)(F)F)cc1 -40.6%

Let us move to another entry and its activity at 200 µM.
Could you share which activity at 200 µM value was measured for O=c1oc2c(OS(=O)(=O)c3cccc(Br)c3)cccc2cc1NS(=O)(=O)c1cccc(Br)c1 ?
-41.1%
